What INHIBITION was measured for each of the following?
Test system: Plasmodium falciparum
testName: Screen against P. falciparum Asexual Blood Stage (ABS), at 5uM
Type: functional, Dd2
conditionsUsed: tested at 5 uM
The whole screen tested about 65,000 compounds, of which about 2,100 (3.2%) showed an effect of 50% or more. The median lay at about -52%. Shown is part of a subset that was picked to be rich in strong results.
Give the value, in units of %, as a plain number.

Value (INHIBITION, Plasmodium falciparum) for record Cc1nn(C)c2cn(C(C)C(=O)NCc3ccccn3)nc12 (stereo unspecified) = -17.6

Tested on Plasmodium falciparum, the item COc1ccc2[nH]cc(CCNC(=O)C3CCCN(C(C)=O)C3)c2c1 (stereo unspecified) showed INHIBITION equal to -30

Reported Plasmodium falciparum INHIBITION for item "O=C(NCCN1CCOCC1)c1ccnn1-c1ccc2ccccn12" was -33.3

Item "Cc1cc(CN2C[C@@H]3CC[C@H]2CN(C2Cc4ccccc4C2)C3)on1" ; assay system Plasmodium falciparum; INHIBITION reported as 62.7

Given the compound "CCS(=O)(=O)N1CCC2(CC1)CN(c1ccsc1)C(=O)CO2" and test system Plasmodium falciparum, the measured INHIBITION is -0.697

Recorded INHIBITION for "CCS(=O)(=O)N1CCc2c(COCc3ccncc3)cncc2C1" on Plasmodium falciparum was -181

Short answer on Plasmodium falciparum for "CN(Cc1ccco1)[C@@H]1CN(Cc2ccccn2)C[C@@H]2CCCO[C@@H]21" , INHIBITION: 31.5

Test item "O=C(Cc1cccc(Cl)c1)N[C@@H]1CCNC[C@H]1O" ; Plasmodium falciparum; reported INHIBITION was -75.4

Record "Cc1noc(CN2C[C@@H]3CC[C@H]2CN(C2Cc4ccccc4C2)C3)n1" ; system Plasmodium falciparum; INHIBITION = 3.93

Hey, Plasmodium falciparum data for CCOCC(=O)N1Cc2nnn(C)c2C(COCc2ccccn2)C1 (stereo unspecified) : INHIBITION came out at -123

Plasmodium falciparum INHIBITION of "Cc1cc(C)n(C2CN(Cc3ccccn3)C2)n1" is -90.2

* * *

System: Plasmodium falciparum
testName: Screen against P. falciparum Asexual Blood Stage (ABS), at 5uM
Assay type: functional, Dd2
conditionsUsed: tested at 5 uM
Screen size: about 65,000 compounds; about 2,100 (3.2%) showed an effect of 50% or more. The median lay at about -52%. This excerpt belongs to a sample that is enriched for strong results.
Answer no if INHIBITION is under -30%, and yes if it is -30% or more.

Hi, just wondering whether COc1c(C)cnc(CN2CCC(N(C)C(=O)C(C)OC)CC2)c1C (configuration not stated) shows INHIBITION of -30% or higher.
yes

Check the entry "CCOc1ccc(CN(CCC#N)CCN2CCOCC2)cc1OC" : does INHIBITION equal or exceed -30%?
no

Identify whether the reported INHIBITION of the following molecule is -30% or greater: "O=C([C@@H]1C[C@@H]2CCN(CCc3ccccc3)C[C@H]2O1)N1CCCC1"
no

Could you verify whether the entry "CCN1CCN(C2CCN(Cc3ncc(C(C)(C)C)o3)CC2)C1=O" shows INHIBITION of no less than -30%?
yes

Check this molecule for INHIBITION at or above -30%: "CN1CC2(CCN(Cc3ccoc3)CC2)COc2ccccc2S1(=O)=O"
yes

Could you please find out whether "Cc1cc2cc(CNC3CCN(CC(=O)N(C)C)CC3)oc2cc1C" has INHIBITION that meets -30% or exceeds it?
no

hey, is INHIBITION for this one >= -30%? NC(=O)c1cc(C2CCCN(CCc3ccc4c(c3)CCO4)C2)n[nH]1 (configuration not stated)
no

In plain terms: is recorded INHIBITION at least -30% for Cc1cc2n(n1)CC(CNC1CCN(CCc3ccccc3)CC1)CN2 (configuration not stated) ?
yes

Could you tell me if the measured INHIBITION of Cn1cc(CNCC(c2ccc(Cl)cc2)n2cccn2)cn1 (configuration not stated) reaches -30% or more?
yes

Does the reported INHIBITION for "CC(C)CN1C(=O)C[C@@H]2[C@@H]1CCN2Cc1cccc(C#N)c1" fall at or above the -30% mark?
no

Item "Cc1ccccc1N1CCN(c2nc(N(C)C)nc3c2CCNC3)CC1" with INHIBITION of -30% or above?
yes

For this molecule, is measured INHIBITION -30% or higher? "COc1cccc(-c2cc(NCCN(C)C)nc3[nH]ccc23)n1"
yes

Determine whether measured INHIBITION meets or exceeds -30% for CC(C)NC(=O)c1sc2ccccc2c1C1CCC(CN)CC1 (configuration not stated)
yes

Assess whether reported INHIBITION for "CN(C)C(=O)N1CCC(c2nc3ccc(-c4ccccc4)cn3n2)CC1" sits at -30% or higher.
no

Decide: is the reported value of INHIBITION for "COCC(=O)N1CCC(C(=O)c2cc(C)cnc2N)CC1" equal to or greater than -30%?
no

Could you verify whether the entry c1cnc(NC2COC3(CCN(Cc4ccoc4)CC3)C2)nc1 (configuration not stated) shows INHIBITION of no less than -30%?
yes

Is it the case that c1ccc(Cn2ccnc2CNC2CCCOc3ccccc32)cc1 (configuration not stated) has INHIBITION reaching or exceeding -30%?
yes

Threshold query (INHIBITION >= -30%) on "CNC(=O)CN1CCOCC12CCN(C(=O)c1ccc(C)cc1)CC2"
no

Entry "Cc1csc(N2CCCN(c3cc(C)nc(C)c3C#N)CC2)n1" : is its INHIBITION no less than -30%?
no

In plain terms: is recorded INHIBITION at least -30% for O=C(CN1CCCC1Cn1cccn1)NCCC1=CCCCC1 (configuration not stated) ?
no

Assess whether reported INHIBITION for Cc1cc(CN2CCC3(CC2)CC(Nc2ncccn2)CO3)nn1C (configuration not stated) sits at -30% or higher.
yes

Could you verify whether the entry OCc1ccccc1CNCC1CNc2ccnn2C1 (configuration not stated) shows INHIBITION of no less than -30%?
yes

Check this molecule for INHIBITION at or above -30%: "CCc1nnc(CN2CCC(N3CCN(CC)C3=O)CC2)o1"
no

Test whether the molecule CC(C)c1cnc(CN(C)C2CCN(CCc3cnn(C)c3)C2)o1 (configuration not stated) records INHIBITION of -30% or higher.
no

Please indicate if the recorded INHIBITION for "N#CCCN(CCN1CCOCC1)Cc1ccc(F)c(Br)c1" meets or exceeds -30%.
yes

Determine whether this molecule has INHIBITION no lower than -30%: "O=C(N[C@@H]1CCNC[C@H]1O)c1ccccc1OC(F)(F)C(F)F"
no

Does "Cc1noc(C)c1CN1C(=O)[C@@H]2CC[C@H]1CN(Cc1cccnc1N)C2" have a reported INHIBITION of at least -30%?
no

Does INHIBITION meet or surpass -30% for "O=C(NCCNC1CCCC1)c1cccs1" ?
no

Exam item: decide whether the reported INHIBITION for "CCCN1CCC2(CC1)COc1ccccc1S(=O)(=O)N(CC1CC1)C2" is at least -30%.
no

Given the entry Cc1cccc2c1OCCC2NCc1c(C)nn(C)c1N(C)C (configuration not stated) , answer whether its INHIBITION meets or surpasses -30%.
yes

Answer whether INHIBITION of "Cc1nc(-c2c(C)noc2C)cc(C2CCN(CC(=O)N(C)C)CC2)n1" is greater than or equal to -30%.
no

Reported INHIBITION at or above -30%? "Cc1cc(Cl)cc(C)c1CNC1CCN(CC(=O)N(C)C)CC1"
yes

Confirm if INHIBITION reported for the molecule Cc1ccccc1CN1CCC(NCC2CNc3ccnn3C2)CC1 (configuration not stated) is -30% or above.
yes

API: above_or_equal(metric=INHIBITION, cutoff=-30%) for item Clc1ccc(C(CNCc2ccncc2)n2cccn2)cc1 (configuration not stated)
no

Has Cc1ccc2c(c1)OCCCC2NCc1nccn1Cc1ccccc1 (configuration not stated) a recorded INHIBITION greater than or equal to -30%?
yes

Is reported INHIBITION greater than or equal to -30% here: CC(C)(C)OC(=O)NC(C)(C(N)=O)c1cccc(Cl)c1 (configuration not stated)
no

Reported INHIBITION at or above -30%? "CC(C)N[C@@H]1CC[C@@H]1NC(=O)c1ccccc1OC(F)(F)C(F)F"
yes

Answer whether INHIBITION of "Cn1ccnc1NC[C@@H]1CCC[C@@H]2CN(CC3CC3)C[C@@H]21" is greater than or equal to -30%.
no

# bool: INHIBITION of Cc1cc2n(n1)CC(CNC1CCN(Cc3ccccn3)CC1)CN2 (configuration not stated) >= -30%
no

Determine whether this molecule has INHIBITION no lower than -30%: CCn1cc(CNCC(c2ccc(Cl)cc2)n2cccn2)cn1 (configuration not stated)
yes

Quick check, INHIBITION >= -30%? "O=C([C@H]1COC[C@H]2CN(C3CCCC3)C[C@H]21)N1CCCO1"
no

Record "CCNC(=O)N(C)C1CCN(Cc2ncc(C)c(OC)c2C)CC1" ; criterion: INHIBITION no lower than -30%. Met?
yes

Test whether the molecule O=C(NCCCSc1ccc(F)cc1)C1CCc2cn[nH]c2C1 (configuration not stated) records INHIBITION of -30% or higher.
no

In plain terms: is recorded INHIBITION at least -30% for Cc1cccc2c1OCCCC2NCc1nccn1Cc1ccccc1 (configuration not stated) ?
yes
